assay: soluble fraction after stress (log2 fold change); higher = more stays soluble; pooled small domains, quantitative proteomics; settings: stress: 50 degC
Catalogue of sequences with associated soluble fraction (log2)
measureName: soluble fraction (log2)

{"orderedResidues": "HMKNTIPVPHIIGLSEQEARETLERAGLQLNVIKTEPNTKYESGQVTDTNPNEGIKVPKGTIVNVVLADS", "measureName": "soluble fraction (log2)", "assayValue": -0.00961}
{"orderedResidues": "HMTIDNPESQKIMDMVPFFFQSRNYDEAIEALTYVIEQEPQFSEAYNKRATFYFMMGDLENSMKDIEITLA", "measureName": "soluble fraction (log2)", "assayValue": -0.401}
{"orderedResidues": "HMQTKMVYSDLVNSIKSEQVSSMLVSGNTVTVTLTNGDKAKVKIPSLDTLQADVGKEMNDQMDKGTLKQE", "measureName": "soluble fraction (log2)", "assayValue": 0.181}
{"orderedResidues": "HMGTDGLKDIVLEILKEHPNQLAELIDGKQKVLGFLVGQVMKKTNGAANPKEVNEIIQGEIKK", "measureName": "soluble fraction (log2)", "assayValue": -0.0707}
{"orderedResidues": "HMDYYKILGLSTSATLDQIKKAFRQLAIEFHPDKNPNNPTAEDKFQRISEAYAVLSNPEKRAEYDRSY", "measureName": "soluble fraction (log2)", "assayValue": -0.0923}
{"orderedResidues": "HMDFGHWAAHKLEQMSEYRLRHGEAVAIGIALDVLYSVRQGLLARPAAERILSLLERLGFTLFDPELKS", "measureName": "soluble fraction (log2)", "assayValue": -0.213}
{"orderedResidues": "HMDKSFYETFEKIGHGDFDKGLNHVWQHANDGNGTATLLLSKLFLEFGDLDNFEKYLNISAEQSNPVAMKI", "measureName": "soluble fraction (log2)", "assayValue": -0.305}
{"orderedResidues": "HMLNMTLGDRIRSRREELRMSQEELATRLGYKSRSTIAKIESGENDLTQSKIVAFAEALSTTARWLLDY", "measureName": "soluble fraction (log2)", "assayValue": -1.04}

###

Catalogue of sequences with associated soluble fraction (log2)
assay: soluble fraction after stress (log2 fold change); higher = more stays soluble; pooled small domains, quantitative proteomics; conditions: stress: 50 degC
measureName: soluble fraction (log2)

{"orderedResidues": "HMPSHALFWTLLKEVPGYDPHYKDVIKEGIVHEHSGGRTTSLSEMYTKYPREYSLMIEAMKG", "measureName": "soluble fraction (log2)", "assayValue": -0.487}
{"orderedResidues": "HMQWLDSIRSRLRVGQTISYFEPRENASSSGLIIELRRKRVLVLEIATQKRWLIEYAAINVDG", "measureName": "soluble fraction (log2)", "assayValue": -0.373}
{"orderedResidues": "HMGNIKVPSVMGMTLEGAEKVAKDNGAVIEVLEYKESTEEDGTIIEQSPKADMTVATLEKISVVISGK", "measureName": "soluble fraction (log2)", "assayValue": -0.105}
{"orderedResidues": "HMENVQLRNFAIKATEAGIIKLSSDQRTFMWASNQKKLMTVPFDEHPYSAMAQFFKTDEGLAVFKSIEKKL", "measureName": "soluble fraction (log2)", "assayValue": -1.12}

###

experiment: soluble fraction after stress (log2 fold change); higher = more stays soluble; pooled small domains, quantitative proteomics; conditions: stress: 50 degC
Catalogue of sequences with associated soluble fraction (log2)
measureName: soluble fraction (log2)

{"orderedResidues": "HMPIQLLSEKYMDEHWDELDKDEVSLYQNMSIRFLLKHEDDINWKLYSTNPFISIDTIDFFKDKISWVNI", "assayValue": -2.57}
{"orderedResidues": "HMSQISKLWRPSEDVTEILTRSGMDSEFLEGLIPEFIIYWSERADVLVSYNSKFIEHARLKWAQHSAEIKT", "assayValue": -2.63}
{"orderedResidues": "HMDEWFPVNDDYKFMVGDEVRTPDGLVKVVATHNDSATFYGKIITPIHDDVLKGETYEYRSYEAQVLA", "assayValue": -0.425}
{"orderedResidues": "HMPELPPHELLRALMVEHDIKQSELPEVGPQPVVSDVLAGKRALNLRQVAALAARFHVPMEVFT", "assayValue": -0.153}
{"orderedResidues": "HMREVVLNRIGSVAVQRATTRTWEEWVVTLDAEGMRGKEHRDVVGHLLRAHELTSWWAQMVSVGYEQSRGQ", "assayValue": -0.166}
{"orderedResidues": "HMGMFNENLRFLRQKRQMSQQAFASILGIPRTTYSEYEKGNTEPNLKLLIRLSELLDVSLDNLISDDLTHN", "assayValue": -2.44}
{"orderedResidues": "HMRPTDVLNYDESMRILNFSNNRVGFKHLMDAKGIEQVIFKNRKIGYRKSEILALKSELEAEQK", "assayValue": -0.341}
{"orderedResidues": "HMKQISNTDELEAMIQKIIEDNSQQVEKFRSGNEKLFGWFVGQVMKNTQGAANPKVVNEILKKSLK", "assayValue": 0.177}

###

experiment: soluble fraction after stress (log2 fold change); higher = more stays soluble; pooled small domains, quantitative proteomics; details: stress: 50 degC
Record fulfilled whenever soluble fraction (log2) is at 0.02 or higher; record not fulfilled when lower.

{"orderedResidues": "HMAITVPEGATLSDAAVLLKQAGAVRSADAFLTRAKVFGGSTPIKAGEFVIPVQASNKDILAILQGGK", "assignedClass": "fulfilled"}
{"orderedResidues": "HMDRQIQITVAENEAGQRLDAFLAAKIPDMSRSYIQKLIEDGLILVNGQSTKGKVKTYSGMNIEVYMPE", "assignedClass": "fulfilled"}
{"orderedResidues": "HMEEKEIGQTLSVKIRENVLSKLDMTRDLEDEEVKHIIEHEIWLAAKKHYISLEERNSIKRGIFNSL", "assignedClass": "not fulfilled"}
{"orderedResidues": "HMFSPTKLKEKRESQGLSQSQLASSLGISRASYFNWESGKTKPNQNNLSKLSEILNVDPRYF", "assignedClass": "fulfilled"}
{"orderedResidues": "HMQVTEVDYGTFMKMVEEKNVGEVEVGNSMIVFTDKDGKAIYKTGAMNDPNLTERLYNAGASFTKE", "assignedClass": "fulfilled"}
{"orderedResidues": "HMDAIAYLGSRLKEIRLKSGLSLREIARQLDVSPSFISQIENGKSQPSVATLYAFAKLLNVPVDVLFQPS", "assignedClass": "not fulfilled"}
{"orderedResidues": "HMNFGEVLQTKRKSMGLTQEDLADKLFVSSETISNWETNKTTPDIDNVIRISQLFDISLNNLLL", "assignedClass": "not fulfilled"}
{"orderedResidues": "HMLTTIRKATVNDKTRIMEIYAYARQFMAEHGNPNQWKNNNPSEETIDNDIAKQEMYVIETDGEVHAVFY", "assignedClass": "not fulfilled"}

###

assay: soluble fraction after stress (log2 fold change); higher = more stays soluble; pooled small domains, quantitative proteomics; conditions: stress: 50 degC

{"orderedResidues": "HMEDSSSILNRMRKLIALLNRASEAYYKENKEIISNFEYDRLYDELLGLESRSNTVLSGSPTYKV", "soluble fraction (log2)": -1.63}
{"orderedResidues": "HMGTELSYSEFLNKVEAGEVTNVTIRGPEITFQTGNSSYTTYAPDDPKLIEHLTAKGVAIKAGP", "soluble fraction (log2)": 0.216}
{"orderedResidues": "HMLLSTHVVVAKEDVQIGTRLQPAMLQVVDWPSASPLKNPLTSIEQATDRVVNMPLVKGEPISMSKLAAKG", "soluble fraction (log2)": 0.00241}
{"orderedResidues": "HMLNENNHGEWSIRMSNGLVVRLGRDELNRSLRRSIMAYAGLAPNYRSSIEYIDARYLGGVALKTF", "soluble fraction (log2)": -0.091}
{"orderedResidues": "HMSRVHHGFNISIARNRKGLKQAALADMLGISQQRLSQLENQRVVKDEILEKVSEATGVSVEDLKTIE", "soluble fraction (log2)": -0.253}
{"orderedResidues": "HMDNWLSGLAVEADRMILTQPGEVFDRLSRAFEATLIRRALASTGGRRIEAAHLLGIGRNTITRKIQDLGL", "soluble fraction (log2)": -2.49}
{"orderedResidues": "HMIIMVNLYQIWDKEVQGLDSVGAKPEQIEARRQAIAAHFESKARQAGMSSKDIYATLDNFDTYSRQKTS", "soluble fraction (log2)": -2.28}
{"orderedResidues": "HMPQKSDLTMEEYNKLGLAGGSGSRKLREQVGIRLSVGYGNSKQFYNRLHTFGISLDELKTAVEEVKNG", "soluble fraction (log2)": -0.117}
{"orderedResidues": "HMITNSTEIEAMIDSLIKENPEQAEQYRNGNTKVVGWFVGQMMKASKGKANPQVVGDLLAQKLVG", "soluble fraction (log2)": 0.0323}
{"orderedResidues": "HMTTIAQNISNYRTRANMTQQQVADKLSVSHHTVSKWELGINTPSVEDMQKLAQVFGVTITELVVD", "soluble fraction (log2)": -0.239}
{"orderedResidues": "HMIGDYALILNIKGGSDWYLGNRVELLFTDGTSKIVTTDKDYNAKKDMVPTQIVTYKVNDNGEYSLKALPT", "soluble fraction (log2)": -2.01}
{"orderedResidues": "HMIHQPNNETTRNLIAGVVKKSLSVWETRVQVDGVDVTTAKDNLAEVHINIRYRLRHNQTPASLGLRLNLG", "soluble fraction (log2)": 0.00106}
{"orderedResidues": "HMSVDAMDEANERKMAKTFNMIVLGGLLKIRPIVSIESVIKALRKTLPERHHHLIPMNEEAIHIGMDII", "soluble fraction (log2)": 0.0597}
{"orderedResidues": "HMGQVSDETGLARVVDALLAAHPDEVAKYRAGKTSLLGWFMGQVMKETRGQANPDLARALVLERLE", "soluble fraction (log2)": -0.101}
{"orderedResidues": "HMRKVTDTHELSSVVKSVIDQWEEKAAEYRAGKSGLLGFFVGEVMKKTGGAADPEAAKSLLQDRLD", "soluble fraction (log2)": 0.18}
{"orderedResidues": "HMLVLAENMDVIFTRRTLDDHVVVDYKTTIGEMVKNDEIKGENMDELISAVEKDGYELVSSTSGEIIFLND", "soluble fraction (log2)": -1.2}
{"orderedResidues": "HMIKLTVRQQEILDLIARSIDQTGFPPTRAEIAAELGFKSVNAAEEHLQALARKGVIEMVPGISRGIRLVQ", "soluble fraction (log2)": -0.395}
